Just for reference, paper PMC4336329 is where these values come from.

- Target Or System: human ether-à-go-go-related gene (hERG) potassium channel (human);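 further: peak tail current of the secondary pulse compared with the same well before compound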
- Procedure Details: primary screen, population patch clamp on CHO cells stably expressing hERG; higher = less effect of the substance
In all, about 310,000 compounds went through this assay and about 14,000 (4.5%) showed an effect of 50% or more. The effect is printed as a negative number. For the sample, strong results were picked, then their nearest neighbours and some compounds at random.
The threshold is inclusive: hERG current change (%, negative = inhibition) at 10uM of exactly -20% counts as Y; values below receive N.

Enquiry: Is hERG current change (%, negative = inhibition) at 10uM at least -20%? Consider Cc1ccc(S(=O)(=O)NCC(=O)N(c2ccccc2)C(C(=O)NCc2ccccc2)c2ccco2)cc1 (stereo not shown)
Return: Y

Enquiry: Also check COc1ccc(NC(=O)CN(C)S(=O)(=O)c2cccc3nsnc23)cc1
Return: N

Enquiry: Now give it for COc1ccc(CNCc2cn(-c3cccc(F)c3)nc2-c2ccc(C)o2)cc1 too.
Return: N

Enquiry: Field entry: Nc1nc(Nc2ccccc2)nc(NC2CCCCC2)c1[N+](=O)[O-]
Return: Y

Enquiry: Same thing, different compound: Cc1ccc(-c2nn(-c3cccc(F)c3)cc2CN2CCN(c3ccccn3)CC2)o1
Return: N

Enquiry: Lookup O=C(NCCCN1CCCC1=O)C1CCN(S(=O)(=O)c2cccc(Cl)c2Cl)CC1
Return: Y

Enquiry: Lookup Cc1ccc(-c2nn(-c3ccccc3)cc2CO)o1
Return: Y

* * *

- Target Or System: human ether-à-go-go-related gene (hERG) potassium channel (human, UniProt Q12809);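 further: peak tail current of the secondary pulse compared with the same well before compound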
- Sequence (Q12809 whole entry, looked up): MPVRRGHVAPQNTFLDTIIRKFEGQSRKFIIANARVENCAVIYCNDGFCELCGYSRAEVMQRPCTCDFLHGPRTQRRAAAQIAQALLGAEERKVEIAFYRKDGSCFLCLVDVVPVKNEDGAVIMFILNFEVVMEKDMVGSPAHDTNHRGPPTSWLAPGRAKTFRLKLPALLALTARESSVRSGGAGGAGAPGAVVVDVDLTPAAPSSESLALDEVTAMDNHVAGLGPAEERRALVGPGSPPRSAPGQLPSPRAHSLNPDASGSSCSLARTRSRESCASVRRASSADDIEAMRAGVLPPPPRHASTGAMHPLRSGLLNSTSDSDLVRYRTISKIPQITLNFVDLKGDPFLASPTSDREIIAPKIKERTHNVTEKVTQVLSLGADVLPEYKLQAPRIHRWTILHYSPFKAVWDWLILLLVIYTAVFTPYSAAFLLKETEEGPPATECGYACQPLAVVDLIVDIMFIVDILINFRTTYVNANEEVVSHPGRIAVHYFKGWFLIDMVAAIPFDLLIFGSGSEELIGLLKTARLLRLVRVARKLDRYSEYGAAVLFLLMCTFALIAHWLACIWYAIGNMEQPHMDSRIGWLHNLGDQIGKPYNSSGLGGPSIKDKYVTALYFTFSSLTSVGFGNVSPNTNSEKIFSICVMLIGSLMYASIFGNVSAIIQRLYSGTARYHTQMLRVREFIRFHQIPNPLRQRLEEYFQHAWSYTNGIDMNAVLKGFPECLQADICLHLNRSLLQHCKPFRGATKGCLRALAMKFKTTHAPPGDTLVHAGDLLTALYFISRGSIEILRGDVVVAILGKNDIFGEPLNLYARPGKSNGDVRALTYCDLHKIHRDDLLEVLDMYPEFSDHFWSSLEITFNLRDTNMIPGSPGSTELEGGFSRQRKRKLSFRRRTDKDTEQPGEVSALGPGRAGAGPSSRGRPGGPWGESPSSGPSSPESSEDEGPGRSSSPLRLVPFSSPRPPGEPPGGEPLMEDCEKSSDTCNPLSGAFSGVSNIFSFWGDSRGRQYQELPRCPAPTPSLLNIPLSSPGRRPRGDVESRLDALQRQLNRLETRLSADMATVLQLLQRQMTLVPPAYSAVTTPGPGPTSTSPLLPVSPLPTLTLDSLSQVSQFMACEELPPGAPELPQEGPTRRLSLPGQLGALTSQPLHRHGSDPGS
- Procedure Details: primary screen, population patch clamp on CHO cells stably expressing hERG; higher = less effect of the substance
Hit rate of the full screen: of about 310,000 compounds, about 14,000 (4.5%) showed an effect of 50% or more. Effects have a minus sign here. The sample holds strong results, similar compounds and a random draw of the others, so the mix is not that of the screen.
Please enter 1.0 where hERG current change (%, negative = inhibition) at 10uM is greater than or equal to -20%, and 0.0 where it is lower.

Enquiry: # bool: hERG current change (%, negative = inhibition) at 10uM of CC(C)OCC(O)CN1CCC(Cc2ccccc2)CC1.Cl (stereo not shown) >= -20%
Return: 0.0

Enquiry: Next compound up: OC(COc1ccc(OCc2ccccc2)cc1)CN1CCOCC1 (stereo not shown)
Return: 1.0

Enquiry: How about this compound: OC(CN1CCCCC1)Cn1c2ccccc2c2cc(Br)ccc21 (stereo not shown)
Return: 0.0

Enquiry: Next record, please: CCN(CC(=O)Nc1ccc(NC(C)=O)cc1)C(=O)Cc1cccc2ccccc12
Return: 1.0

Enquiry: Subsequent entry: CCOC(=O)C1(CCOc2ccccc2)CCN(Cc2cccc3c2OCO3)CC1
Return: 0.0

Enquiry: For C=CCN1CC[C@]23c4c5ccc(O)c4O[C@H]2/C(=N/NC(=O)c2ccccc2)CC[C@@]3(O)[C@H]1C5 then?
Return: 0.0

Enquiry: Ok, now O=C(NC(=S)NCC1CCCO1)c1ccccc1Br (stereo not shown)
Return: 1.0

Enquiry: How about this compound: Cl.OC(COc1ccc(Br)cc1)CN1CCOCC1 (stereo not shown)
Return: 1.0

Enquiry: What do you have for O=C(Sc1ccc(Cl)cc1)c1cccc(Cn2cc(C(F)(F)F)ccc2=O)c1 ?
Return: 1.0

Enquiry: Proceed to O=C(CCCCCCN1C(=O)c2ccccc2C1=O)Nc1nccs1
Return: 1.0

Enquiry: Also Oc1cccc(C2c3[nH]c4ccccc4c3CCN2Cc2ccoc2)c1 (stereo not shown) ?
Return: 0.0

Enquiry: Same again, this time with C=C(C)CN1CC[C@]23c4c5ccc(O)c4O[C@H]2c2[nH]c4ccccc4c2C[C@@]3(O)C1C5.Cl.O
Return: 1.0

Enquiry: Repeat for the following compound: Cl.N=c1n(CCN2CCCC2)c2ccccc2n1CC(O)c1ccc(Cl)c(Cl)c1 (stereo not shown)
Return: 0.0

Enquiry: One more compound: Cl.Oc1ccc2c3c1O[C@H]1c4[nH]c5ccccc5c4C[C@@]4(O)[C@@H](C2)N(CC2CC2)CC[C@]314
Return: 0.0

Enquiry: // repeat for Cl.OC(COc1ccccc1)CN1CCC(Cc2ccccc2)CC1 (stereo not shown) and report
Return: 0.0

Enquiry: Let us now turn to CCOC(=O)C1(CCc2ccccc2)CCN(Cc2cccc3c2OCO3)CC1
Return: 0.0

* * *

Record form. Attribute: hERG current change (%, negative = inhibition) at 10uM. Fill in for each entry.
- Target Or System: human ether-à-go-go-related gene (hERG) potassium channel (human);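 further: peak tail current of the secondary pulse compared with the same well before compound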
- Procedure Details: primary screen, population patch clamp on CHO cells stably expressing hERG; higher = less effect of the substance
The campaign covered roughly 310,000 compounds. About 14,000 (4.5%) showed an effect of 50% or more. Effects have a minus sign here. The list comes from a sample in which strong results are over-represented; it also holds close analogues and randomly drawn compounds.
Answer in %, number only, no unit symbol.

Enquiry: Look up hERG current change (%, negative = inhibition) at 10uM for this molecule: CNc1ccccc1C(C)(C)c1cc(C)[nH]n1
Return: 22.6

Enquiry: // query: Fc1ccc(C(c2nnnn2Cc2ccccc2)N2CCSCC2)cc1 (stereo not drawn)
Return: -2.85

Enquiry: // next record Cl.Fc1ccc(C(c2nnnn2Cc2cccs2)N2CCN(C3CCCC3)CC2)cc1 (stereo not drawn)
Return: -67.4

Enquiry: Here is the next molecule: COc1ccc(C(=O)Nc2ccc3c(c2)nc2n3CCSC2)cc1
Return: -24.7

Enquiry: How about this molecule: Cc1cc(NC(=O)CCC(=O)N(CC(=O)NC2CCCC2)c2ccc(Cl)cc2)no1
Return: -16.7

Enquiry: Item: COc1ccc(C(=O)Nc2ccnn2C2CCN(CC3CC=CCC3)CC2)cc1 (stereo not drawn)
Return: -37.4

* * *

- Target Or System: human ether-à-go-go-related gene (hERG) potassium channel (human, UniProt Q12809);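 further: peak tail current of the secondary pulse compared with the same well before compound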
- Procedure Details: primary screen, population patch clamp on CHO cells stably expressing hERG; higher = less effect of the substance
Among all 310,000 compounds or so, about 14,000 (4.5%) showed an effect of 50% or more. Effects have a minus sign here. The sample as a whole holds a higher share of strong results than the screen did.
Consider the following compounds; for each one, report its hERG current change (%, negative = inhibition) at 10uM.
All answers are understood in %, so give the number only.

Enquiry: Can you look up hERG current change (%, negative = inhibition) at 10uM on human ether-à-go-go-related gene (hERG) potassium channel (human, UniProt Q12809) for C=CCN1C(=O)NC(=O)/C(=C/c2ccc(OC)c(COc3ccc(NC(C)=O)cc3)c2)C1=O ?
Return: 8.75

Enquiry: Further, for COCCCN=Cc1c(C)[nH]n(-c2ccc(Br)cc2Br)c1=O ?
Return: 20.4

Enquiry: Can you handle COc1cccc(C(=O)C2CCCN(C/C=C/c3ccccc3OC)C2)c1 (centres unmarked) next?
Return: -68.4

Enquiry: Also need COCCCN=Cc1c(-c2ccccc2)[nH]n(-c2nc3ccccc3s2)c1=O , thanks.
Return: -75.1

Enquiry: Next compound up: CCn1c(=O)c(C(=O)NCCNCCO)c(O)c2ccccc21.Cl
Return: 5.89

Enquiry: // query: COc1ccc(N2CCN(C(=O)CN3CCN(C(c4ccccc4)c4ccccc4)CC3)CC2)cc1.Cl
Return: -46

Enquiry: Also need O=C(c1cc(-c2ccccc2)on1)N1CCCC1 , thanks.
Return: 9.39

Enquiry: Also COc1ccc(C(=O)C2CCCN(C/C=C/c3ccccc3OC)C2)c(OC)c1 (centres unmarked) , if possible.
Return: -77.5

Enquiry: Proceed to Cc1nc(NCCCn2ccnc2)c2oc3ccccc3c2n1.Cl
Return: -69.8

Enquiry: Another: C=CCNC(=O)/C=C/c1cccs1
Return: 16.4

Enquiry: Next entry: COC(=O)C1=C(C(=O)c2ccc(C)cc2)C(c2ccc(OC)c(OC)c2)n2nnnc2N1 (centres unmarked)
Return: 3.59

Enquiry: Also COc1ccc(C(=O)CN2CCN(S(=O)(=O)c3cccc([N+](=O)[O-])c3)CC2)cc1 , if possible.
Return: -112

Enquiry: Continue with Cc1noc2ncnc(Sc3ccc(Br)cc3)c12
Return: -50.8

Enquiry: Same question, COc1ccc2c(c1)CC/C(=C/c1cc(OC)c(OC)c(OC)c1)C2=O this time
Return: -1.54

Enquiry: Also check O=C(CSc1nnc(CNC(=O)c2cccs2)o1)NC1CCCCC1
Return: -24

Enquiry: Another: CCCN=C(C)c1c(-c2ccccc2)[nH]n(-c2nc3ccccc3s2)c1=O
Return: -7.79

Enquiry: Now try COc1ccc(S(=O)(=O)N2CCN(Cc3cccc([N+](=O)[O-])c3)CC2)cc1 .
Return: -87.4

Enquiry: Same again, this time with COc1ccccc1CNC(=O)COC(=O)c1cc(C)oc1C
Return: 0.456

Enquiry: Now consider Cc1cc(C(=O)N/N=C/c2ccco2)n[nH]1 and answer again.
Return: 31.6

Enquiry: Again, but for Cc1nc(NCCCN2CCOCC2)c2oc3ccccc3c2n1.Cl
Return: -15.5

Enquiry: Same question, CC(=O)c1sc(NC(=O)CS(=O)(=O)c2ccccc2)nc1C this time
Return: -25.3

Enquiry: Queued: O=C(NC1CCCN(CCc2ccccc2)C1)C1CCCC1 (centres unmarked)
Return: -36.7

Enquiry: Field entry: [O-][N+]1=C(c2cccs2)CN(O)C1
Return: 8.57

Enquiry: Repeat for the following compound: CN(C)/C=N/c1[nH]ncc1C#N
Return: 16

Enquiry: One more compound: Cc1nnc(SCC(=O)Nc2nccs2)n(N)c1=O
Return: 19.4

Enquiry: Same for CC(=O)c1nc(N2C(=O)CC(Cc3cccc(C)c3)C2=O)sc1C (centres unmarked)
Return: -16.3

Enquiry: Try this compound next: O=C(NC(=S)NCCO)c1sc2ccccc2c1Cl
Return: -0.142

Enquiry: And the next one, COc1ccc(C(=O)CN2CCN(S(=O)(=O)c3cccc([N+](=O)[O-])c3)CC2)cc1OC ?
Return: -5.28

Enquiry: Now consider COc1ccc(/C=C(/NC(=O)c2ccccc2)C(=O)N/N=C/c2ccncc2)cc1 .
Return: 9.78
